This section presents compounds with their documented IC50 values.
- Tgt: Wee1 kinase domain (Homo sapiens)
- Construct: Wee1 kinase domain was purchased from Carna (catalog #05-177); purchased Carna 05-177
- Sequence (P30291 299-569 limits assumed): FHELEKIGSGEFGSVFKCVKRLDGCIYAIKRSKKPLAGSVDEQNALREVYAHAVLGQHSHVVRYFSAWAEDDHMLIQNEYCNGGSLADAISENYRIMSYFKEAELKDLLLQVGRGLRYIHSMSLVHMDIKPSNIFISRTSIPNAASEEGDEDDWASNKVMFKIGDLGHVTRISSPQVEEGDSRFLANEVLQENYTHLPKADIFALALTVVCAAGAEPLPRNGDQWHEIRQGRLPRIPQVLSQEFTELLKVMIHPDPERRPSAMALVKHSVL
- Assay method text: Wee1 Kinase Biochemical Assay (ADP-Glo)
- Measurement setup: class symbols; 1 nM Wee1 enzyme, 15 uM ATP, 4 hours at 25° C.
- Protocol: Wee1 Kinase Biochemical Assay Protocol Wee1 kinase domain was purchased from Carna (catalog #05-177). Wee1 kinase activity was determined with Poly(Lys,Tyr 4:1) hydrobromide as a substrate (Sigma-Aldrich) and by measuring ADP production using the ADP-Glo Kinase Assay kit (Promega) following the manufacturer's instructions. […] The ADP-Glo signal was measured using the Envision plate reader and the percentage inhibition of kinase activity calculated for each inhibitor tested. […]
Assay metric: IC50

>>> test_value("CN1CC[C@H]2CN(c3ccc(Nc4ncc5c(n4)N(c4cccc(C(C)(C)O)n4)[C@H]4CC(C)(C)OC[C@@]54C)cc3)C[C@H]21 (single isomer, unassigned) [Example 440]")
"10 to 100 nM"
>>> test_value("CNCc1cccc(N2c3nc(Nc4ccc(-n5nccn5)cc4)ncc3[C@@]3(C)COC(C)(C)C[C@@H]23)n1 (single isomer, unassigned) [Example 767]")
"< 10 nM"
>>> test_value("CC1(C)C[C@@H]2N(c3cccc(N4CCOC4=O)n3)c3nc(Nc4ccc([C@H]5CNC[C@H]5F)cc4)ncc3[C@]2(C)CO1 [Example 673]")
"10 to 100 nM"
>>> test_value("CC1(C)C[C@@H]2N(c3ccc4c(n3)[C@](C)(N)CC4)c3nc(Nc4ccc(N5CCOCC5)cc4)ncc3[C@]2(C)CO1 (single isomer, unassigned) [Example 563]")
"100 to 1000 nM"
>>> test_value("CNCc1cccc(N2c3nc(Nc4ccc(N5[C@@H]6COC[C@H]5C6)cc4)ncc3[C@]3(C)COC(C)(C)C[C@H]23)n1 (single isomer, unassigned) [Example 480]")
"100 to 1000 nM"
>>> test_value("CN1CCN(c2ccc(Nc3ncc4c(n3)N(c3cccc(C5CC5)n3)[C@@H]3CC(C)(C)OC[C@]43C)cc2)CC1 (single isomer, unassigned) [Example 774]")
"< 10 nM"
>>> test_value("CN1C[C@H]2C[C@@H]1CN2c1ccc(Nc2ncc3c(n2)N(c2cccc(C(C)(C)O)n2)[C@H]2CC(C)(C)OC[C@@]32C)cc1 (single isomer, unassigned) [Example 414]")
"100 to 1000 nM"
>>> test_value("CC1(C)C[C@H]2N(c3cccc([C@@H]4CCCN4)n3)c3nc(Nc4ccc(N5CCOCC5)cc4)ncc3[C@@]2(C)CO1 (single isomer, unassigned) [Example 526]")
"< 10 nM"
>>> test_value("CN1CC[C@@H](Oc2ccc(Nc3ncc4c(n3)N(c3cccc(N5CCOC5=O)n3)[C@@H]3CC(C)(C)OC[C@]43C)cc2)C1 [Example 624]")
"< 10 nM"
>>> test_value("C[C@H]1COC(=O)N1c1cccc(N2c3nc(Nc4ccc([C@H]5CCN(C)C5)cc4)ncc3[C@@]3(C)COCC[C@@H]23)n1 [Example 793]")
"< 10 nM"
>>> test_value("C[C@H]1CCC(=O)N1c1cccc(N2c3nc(Nc4ccc(N5C[C@H]6C[C@@H](C5)N6C)cc4)ncc3[C@@]3(C)COC(C)(C)C[C@@H]23)n1 (single isomer, unassigned) [Example 748]")
"< 10 nM"
